Recorded values, source patent US20230242646A1.

- TARGET_OR_SYSTEM: T1, membrane-bound full-length human CD89 on HEK293F cells (human, UniProt P24071 22-287)
- T1 construct: 2 or transient transfectants; also called membrane human CD89; human FcaRI
- TEST_DETAILS: FACS HEK293F-huCD89
ASSAY_READOUT: EC50 (µg/mL)
Answers are plain numbers, in µg/mL.

**Q:** Which EC50 reading was recorded for the binder CD89/IgA blocking mouse anti-human CD89-specific antibody 8F3 (antibody, V domains shown, also called mouse 8F3) VH: EVQLVESGGGLVKPGGSLKLSCAASGFTFSNYGMSWVRQTPDKRLEWVATMHSGGTYTYYPDNVKGRFTISRDNAKNNLYLQMSSLRSEDTAMYYCARETGLYDGLFDFWGQGTTLTVSS VL: DVQITQSPSYLAASPGETITINCRASKTISKYLAWYQEKPGKTNMLLIYSGSTLQSGVPSRFSGSGSGTDFTLTISSLEPEDLAMYYCQQHDEYPWTFGGGTKLEIK ?
**A:** 0.714
